Data origin: patent US20160333419A1

# Tested on: ZR-75-1
# experimental_details: OncoPanel cytotoxicity assay
# Format: cell-based
# assay_conditions: Homo sapiens, 72 hour incubation
experimental_endpoint: IC50
Put down the number, then write its unit next to it.

Which IC50 reading was recorded for the compound CC[C@@H]1CNC2(CC2)CN1C(=O)[C@@H]1C[C@@H](F)CN1C(=O)C1=C(C(C)C)N2C(=N[C@@](C)(c3ccc(Cl)nc3)[C@H]2c2ccc(Cl)c(F)c2)S1 ?
1.5 µM

* * *

# System: SW837
# experimental_details: OncoPanel cytotoxicity assay
# Format: cell-based
# assay_conditions: Homo sapiens, 72 hour incubation
IC50 reference

smiles_repr: CC1(C)CCC2(CC1)N[C@@H](C(=O)N[C@@H]1CC[C@@H](C(N)=O)OC1)[C@H](c1ccnc(Cl)c1F)[C@]21C(=O)Nc2cc(Cl)ccc21
tested_on: SW837
experimental_result: > 10 µM

Bench note: what IC50 did CC[C@@H]1CNC2(CC2)CN1C(=O)[C@@H]1C[C@@H](F)CN1C(=O)C1=C(C(C)C)N2C(=N[C@@](C)(c3ccc(Cl)nc3)[C@H]2c2ccc(Cl)c(F)c2)S1 show?
> 40 µM
